Target: PIH1D1 1–180 (human, UniProt Q9NWS0 1-180)
Sequence (Q9NWS0 1-180): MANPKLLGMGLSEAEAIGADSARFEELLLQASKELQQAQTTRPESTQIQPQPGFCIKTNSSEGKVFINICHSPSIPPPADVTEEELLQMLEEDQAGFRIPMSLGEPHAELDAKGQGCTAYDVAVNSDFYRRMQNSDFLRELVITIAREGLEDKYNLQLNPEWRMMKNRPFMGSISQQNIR
Test: ITC
Where no end group is shown, it is not given here. [ ]: non-standard residue; d: D form. pS = N[C@@H](COP(=O)(O)O)C(=O)O
measurement label: pKd
FYI, pKd means -log10 of a concentration in mol per litre.

binder="RPNESD[pS]DDLDDY [ECD peptide RPNESDpS505DDLDDY]" endpoint_value=4.80

Consider the record given below.
What value of pKd has been reported for the following binder? YAGSDSDLD[pS]DDEFVPY (also: phosphoserine at Ser491, place not mappable) [TEL2 peptide phosphorylated on Ser491]
5.46
